// reported 5+ nucleoli phenotype percent effect for each item listed
Tested on: MCF10A
Experiment: 5+ nucleoli phenotype percent effect (relative to siNT 0% and siKIF11 100%); higher = more cells with five or more nucleoli
Details: 20 nM; 72 h
EXPERIMENTAL ENDPOINT: 5+ nucleoli phenotype percent effect (%)

INSERT INTO measurements (residue_codes, result_unit, recorded_measurement) VALUES
  ('CUGGGCUCGGGACGCGCGGCU [hsa-miR-4674]', '%', -33.5),
  ('UGUUCUCUUUGCCAAGGACAG [hsa-miR-2117]', '%', 4.15),
  ('GGCGCGCCCAGCUCCCGGGCU [hsa-miR-4783-5p]', '%', 28),
  ('GGGCGCCUGUGAUCCCAAC [hsa-miR-566]', '%', 39.3),
  ('GAAAGCGCUUCCCUUUGCUGGA [hsa-miR-518a-3p]', '%', -15.5),
  ('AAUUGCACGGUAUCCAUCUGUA [hsa-miR-363-3p]', '%', -15.8),
  ('UGGUGGAGGAAGAGGGCAGCUC [hsa-miR-6880-5p]', '%', -19.7),
  ('AGAAGAUUGCAGAGUAAGUUCC [hsa-miR-4699-5p]', '%', -32.9),
  ('CUUAGCAGGUUGUAUUAUCAUU [hsa-miR-374b-3p]', '%', -9.55),
  ('ACCCCUGCCACUCACUGGCC [hsa-miR-6801-3p]', '%', 1.82),
  ('CUGCAGGCAGAAGUGGGGCUGACA [hsa-miR-6511b-5p]', '%', -9.29),
  ('UCAGGCCAGGCACAGUGGCUCA [hsa-miR-1972]', '%', 17.7),
  ('AUACCUCAUCUAGAAUGCUGUA [hsa-miR-4777-3p]', '%', -19.6),
  ('ACUGGACUUGGUGUCAGAUGG [hsa-miR-378h]', '%', 41),
  ('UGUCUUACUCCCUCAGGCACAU [hsa-miR-550a-3p]', '%', -24),
  ('ACUGGACUUGGAGUCAGAAGAGUGG [hsa-miR-378c]', '%', -4.56),
  ('AGGUUGGGAUCGGUUGCAAUGCU [hsa-miR-92a-1-5p]', '%', -34),
  ('UUCAGCCAGGCUAGUGCAGUCU [hsa-miR-3157-5p]', '%', -4.24),
  ('AGAAGGGAAGAUGGUGAC [hsa-miR-7515]', '%', 4.41),
  ('UCCUCCUCUACCUCAUCCCAGU [hsa-miR-5193]', '%', -13.6),
  ('AACGGCAAUGACUUUUGUACCA [hsa-miR-548al]', '%', -4.48),
  ('UCCAGUACCACGUGUCAGGGCCA [hsa-miR-770-5p]', '%', -28.6),
  ('CAAAACCGCGAUUACUCUUGCA [hsa-miR-548ay-3p]', '%', -63.9),
  ('UCUCUGGUCUUGCCACCCCAG [hsa-miR-6824-3p]', '%', -18.8),
  ('UCUGACAUCAGUGAUUCUCCUG [hsa-miR-6719-3p]', '%', 20.2),
  ('CAAUUUAGUGUGUGUGAUAUUU [hsa-miR-32-3p]', '%', 35.1),
  ('UUUAGGAUAAGCUUGACUUUUG [hsa-miR-651]', '%', 33.3),
  ('UUCUCAAGAGGGAGGCAAUCAU [hsa-miR-514b-5p]', '%', 36.5),
  ('AUGCUACUCGGAAAUCCCACUGA [hsa-miR-5089-3p]', '%', -30.6),
  ('CAGAAGGGGAGUUGGGAGCAGA [hsa-miR-3154]', '%', -26.4),
  ('UGCCCCAUCUGUGCCCUGGGUAGGA [hsa-miR-3189-5p]', '%', 42.8),
  ('AAGCAGCAGUGGCAAGACUCCU [hsa-miR-6838-5p]', '%', -35.6),
  ('CCUCUAGAUGGAAGCACUGUCU [hsa-miR-517-5p]', '%', 23.9),
  ('UCUGAAUAGAGUCUGAAGAGU [hsa-miR-4427]', '%', 39.9),
  ('UGGGGCUAGUGAUGCAGGACG [hsa-miR-4489]', '%', -9.01),
  ('CAGGAAGGAGACAGGCAGUUCA [hsa-miR-6876-5p]', '%', -24.5),
  ('AAGGUUUGGAUAGAUGCAAUA [hsa-miR-4464]', '%', -24.5),
  ('GUUUCACCAUGUUGGUCAGGC [hsa-miR-5096]', '%', -17.6),
  ('AUUCUAAUUUCUCCACGUCUUU [hsa-miR-576-5p]', '%', 28.2),
  ('AAAGACAUAGUUGCAAGAUGGG [hsa-miR-3617-5p]', '%', 37.2),
  ('UAGUGAGUUAGAGAUGCAGAGCC [hsa-miR-3174]', '%', -38.2),
  ('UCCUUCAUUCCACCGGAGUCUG [hsa-miR-205-5p]', '%', -17.6),
  ('GAAGAUGGACGUACUUU [hsa-miR-4426]', '%', -32.9),
  ('UGCACCAUGGUUGUCUGAGCAUG [hsa-miR-767-5p]', '%', 8.28);

* * *

Catalogue of percent viability values
Tested on: MCF10A
Assay: percent viability (nuclei count relative to siNT); higher = more viable cells
Details: 20 nM; 72 h
EXPERIMENTAL ENDPOINT: percent viability (%)

INSERT INTO assay_data (residue_codes, experimental_system, recorded_measurement) VALUES
  ('UACUUUUCUAGGUUGUUGGGG [hsa-miR-5003-3p]', 'MCF10A', 24.9),
  ('UGCGUUUCUCCUCUUGAGCAG [hsa-miR-6854-3p]', 'MCF10A', 23.5),
  ('UGCCAACCGUCAGAGCCCAGA [hsa-miR-5189-3p]', 'MCF10A', 59.9),
  ('UGGAGAGAAAGGCAGUUCCUGA [hsa-miR-185-5p]', 'MCF10A', 21.7),
  ('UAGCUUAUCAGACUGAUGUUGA [hsa-miR-21-5p]', 'MCF10A', 121),
  ('AUGUAGGGCUAAAAGCCAUGGG [hsa-miR-135b-3p]', 'MCF10A', 14.3),
  ('UGGAAAAAACUGGUGUGUGCUU [hsa-miR-3148]', 'MCF10A', 35.9),
  ('AGCGUGGGAUGUCCAUGAAGUCAG [hsa-miR-6853-5p]', 'MCF10A', 71.7),
  ('GCUGAUGAUGAUGGUGCUGAAG [hsa-miR-4502]', 'MCF10A', 85.3),
  ('ACCAGCCUGUGUCCACCUCCAG [hsa-miR-6849-3p]', 'MCF10A', 46),
  ('UCUGGUAAGAGAUUUGGGCAUA [hsa-miR-4490]', 'MCF10A', 54.4),
  ('CUGAAGCUCAGAGGGCUCUGAU [hsa-miR-127-5p]', 'MCF10A', 45.5),
  ('UGCGGGGCUAGGGCUAACAGCA [hsa-miR-744-5p]', 'MCF10A', 12),
  ('GCAGGCACAGACAGCCCUGGC [hsa-miR-4269]', 'MCF10A', 30.1),
  ('CCAGUAUUAACUGUGCUGCUGA [hsa-miR-16-1-3p]', 'MCF10A', 85.1),
  ('ACAGGGAGGAGAUUGUA [hsa-miR-4441]', 'MCF10A', 18.5),
  ('AACUAGCUCUGUGGAUCCUGAC [hsa-miR-4661-5p]', 'MCF10A', 13.9),
  ('AGGGCAUGUCCAGGGGGU [hsa-miR-4253]', 'MCF10A', 28.5),
  ('GCUCGGACUGAGCAGGUGGG [hsa-miR-3917]', 'MCF10A', 57.6),
  ('AGGGGGGCACUGCGCAAGCAAAGCC [hsa-miR-6885-5p]', 'MCF10A', 42.5),
  ('UCUAAAGACUAGACUUCGCUAUG [hsa-miR-4744]', 'MCF10A', 106),
  ('UCCUCCUCUACCUCAUCCCAGU [hsa-miR-5193]', 'MCF10A', 35.1),
  ('AGUGCCUGAGGGAGUAAGAG [hsa-miR-550a-3-5p]', 'MCF10A', 79.3),
  ('AGGGCAUAGGAGAGGGUUGAUAU [hsa-miR-3945]', 'MCF10A', 27.2),
  ('ACUCAAACUGUGGGGGCACU [hsa-miR-371a-5p]', 'MCF10A', 79.6),
  ('GGGUCCCGGGGAGGGGGG [hsa-miR-4281]', 'MCF10A', 100),
  ('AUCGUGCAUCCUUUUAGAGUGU [hsa-miR-517c-3p]', 'MCF10A', 41.6),
  ('AAAAGUGAUUGCAGUGUUUG [hsa-miR-548ah-5p]', 'MCF10A', 114),
  ('UAGUGGUCCUAAACAUUUCACA [hsa-miR-203b-5p]', 'MCF10A', 15.6),
  ('UCCCCUUCUGCAGGCCUGCUGG [hsa-miR-3127-3p]', 'MCF10A', 144),
  ('CAGGGAACCAGUUGGGGCUU [hsa-miR-6822-5p]', 'MCF10A', 20.6),
  ('ACUGGGCAGGGCUGUGGUGAGU [hsa-miR-6860]', 'MCF10A', 50.7),
  ('UUGGGUUUUCUCUUCAAUCCAG [hsa-miR-6839-3p]', 'MCF10A', 22.3),
  ('CCUGACACCCCAUCUGCCCUCA [hsa-miR-6730-3p]', 'MCF10A', 61.8),
  ('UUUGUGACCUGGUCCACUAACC [hsa-miR-758-3p]', 'MCF10A', 52.5),
  ('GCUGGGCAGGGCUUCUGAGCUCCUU [hsa-miR-612]', 'MCF10A', 77.6),
  ('ACCACUGCACUCCAGCCUGAG [hsa-miR-1273g-3p]', 'MCF10A', 39.3),
  ('CACCUUUGUGUCCCCAUCCUGCA [hsa-miR-6782-3p]', 'MCF10A', 51.1),
  ('ACCUUGCAUCUGCAUCCCCAG [hsa-miR-6841-3p]', 'MCF10A', 28.6),
  ('UUGCUCCUGACUCUGUGCCCACA [hsa-miR-6772-3p]', 'MCF10A', 32.5);
